All figures here come from patent US20220306695A1.

As shown below, each of these binders has a reported CP hemolysis IC50 value.
Molecular target: Human C3 (human, UniProt P01024 23-1663)
Sequence (P01024 23-1663 limits assumed): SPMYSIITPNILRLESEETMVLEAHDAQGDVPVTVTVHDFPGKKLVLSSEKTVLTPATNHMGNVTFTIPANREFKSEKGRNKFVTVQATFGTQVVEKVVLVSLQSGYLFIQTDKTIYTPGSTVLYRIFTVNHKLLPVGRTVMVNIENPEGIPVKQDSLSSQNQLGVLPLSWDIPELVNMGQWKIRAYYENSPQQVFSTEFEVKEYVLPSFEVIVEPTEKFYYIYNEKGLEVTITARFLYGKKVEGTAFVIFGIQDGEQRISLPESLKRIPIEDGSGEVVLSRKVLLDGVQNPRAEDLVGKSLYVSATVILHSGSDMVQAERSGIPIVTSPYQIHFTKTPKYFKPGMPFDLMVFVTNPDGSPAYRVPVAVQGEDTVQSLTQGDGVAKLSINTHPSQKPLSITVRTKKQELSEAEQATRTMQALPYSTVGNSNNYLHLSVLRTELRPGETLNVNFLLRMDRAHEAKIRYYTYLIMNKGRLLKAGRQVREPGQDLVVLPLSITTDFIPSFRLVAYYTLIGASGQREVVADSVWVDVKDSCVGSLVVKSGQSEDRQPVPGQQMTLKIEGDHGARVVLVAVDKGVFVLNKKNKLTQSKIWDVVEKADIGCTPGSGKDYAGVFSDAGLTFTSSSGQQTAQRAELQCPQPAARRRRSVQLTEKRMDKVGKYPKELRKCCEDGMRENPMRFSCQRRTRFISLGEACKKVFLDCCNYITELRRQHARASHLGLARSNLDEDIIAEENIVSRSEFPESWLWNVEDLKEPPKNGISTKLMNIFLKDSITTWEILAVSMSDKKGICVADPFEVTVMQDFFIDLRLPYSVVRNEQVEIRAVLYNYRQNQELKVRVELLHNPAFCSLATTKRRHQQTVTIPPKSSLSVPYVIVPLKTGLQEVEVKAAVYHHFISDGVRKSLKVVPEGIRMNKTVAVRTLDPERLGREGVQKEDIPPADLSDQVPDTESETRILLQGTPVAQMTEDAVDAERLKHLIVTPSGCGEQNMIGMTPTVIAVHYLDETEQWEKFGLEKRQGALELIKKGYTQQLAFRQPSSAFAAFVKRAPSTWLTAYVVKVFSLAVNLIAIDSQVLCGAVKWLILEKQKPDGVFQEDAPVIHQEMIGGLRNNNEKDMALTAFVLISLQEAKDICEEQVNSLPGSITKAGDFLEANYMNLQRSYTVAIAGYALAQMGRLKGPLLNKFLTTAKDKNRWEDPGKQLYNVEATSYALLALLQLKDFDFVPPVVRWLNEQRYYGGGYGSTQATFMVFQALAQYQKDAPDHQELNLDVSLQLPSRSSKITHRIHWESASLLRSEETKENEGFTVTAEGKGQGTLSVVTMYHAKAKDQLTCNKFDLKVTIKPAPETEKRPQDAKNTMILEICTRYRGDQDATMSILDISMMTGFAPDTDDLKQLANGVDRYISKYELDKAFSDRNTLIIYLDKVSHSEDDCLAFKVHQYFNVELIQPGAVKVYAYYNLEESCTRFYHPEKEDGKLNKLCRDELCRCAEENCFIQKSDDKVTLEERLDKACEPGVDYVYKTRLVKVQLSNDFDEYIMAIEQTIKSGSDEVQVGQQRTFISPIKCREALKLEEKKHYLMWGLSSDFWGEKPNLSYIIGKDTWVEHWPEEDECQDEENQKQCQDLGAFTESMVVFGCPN
Assay: cell-based or functional assay
Positions of bridges follow the written chain, without caps; N, C: chain ends.

binder	relation_qualifier	CP hemolysis IC50, nM
Ac-ICVWQDWGAHSCT-NH2 (disulfide 2-12; SMILES CC[C@H](C)[C@H](NC(C)=O)C(=O)N[C@H]1CSSC[C@@H](C(=O)N[C@H](C(N)=O)[C@@H](C)O)NC(=O)[C@H](CO)NC(=O)[C@H](Cc2c[nH]cn2)NC(=O)[C@H](C)NC(=O)CNC(=O)[C@H](Cc2c[nH]c3ccccc23)NC(=O)[C@H](CC(=O)O)NC(=O)[C@H](CCC(N)=O)NC(=O)[C@H](Cc2c[nH]c3ccccc23)NC(=O)[C@H](C(C)C)NC1=O) [Compound E]	>	1000
Ac-ICVWQDWGSHRCT-NH2 (disulfide 2-12; SMILES CC[C@H](C)[C@H](NC(C)=O)C(=O)N[C@H]1CSSC[C@@H](C(=O)N[C@H](C(N)=O)[C@@H](C)O)NC(=O)[C@H](CCCNC(=N)N)NC(=O)[C@H](Cc2c[nH]cn2)NC(=O)[C@H](CO)NC(=O)CNC(=O)[C@H](Cc2c[nH]c3ccccc23)NC(=O)[C@H](CC(=O)O)NC(=O)[C@H](CCC(N)=O)NC(=O)[C@H](Cc2c[nH]c3ccccc23)NC(=O)[C@H](C(C)C)NC1=O) [Compound B]	=	360
Ac-ICIWQDWGEHSCT-NH2 (disulfide 2-12; SMILES CC[C@H](C)[C@H](NC(C)=O)C(=O)N[C@H]1CSSC[C@@H](C(=O)N[C@H](C(N)=O)[C@@H](C)O)NC(=O)[C@H](CO)NC(=O)[C@H](Cc2c[nH]cn2)NC(=O)[C@H](CCC(=O)O)NC(=O)CNC(=O)[C@H](Cc2c[nH]c3ccccc23)NC(=O)[C@H](CC(=O)O)NC(=O)[C@H](CCC(N)=O)NC(=O)[C@H](Cc2c[nH]c3ccccc23)NC(=O)[C@H]([C@@H](C)CC)NC1=O) [Compound 20]	=	59
Ac-ICIWQDWGEHRCTGAES-NH2 (disulfide 2-12; SMILES CC[C@H](C)[C@H](NC(C)=O)C(=O)N[C@H]1CSSC[C@@H](C(=O)N[C@H](C(=O)NCC(=O)N[C@@H](C)C(=O)N[C@@H](CCC(=O)O)C(=O)N[C@@H](CO)C(N)=O)[C@@H](C)O)NC(=O)[C@H](CCCNC(=N)N)NC(=O)[C@H](Cc2c[nH]cn2)NC(=O)[C@H](CCC(=O)O)NC(=O)CNC(=O)[C@H](Cc2c[nH]c3ccccc23)NC(=O)[C@H](CC(=O)O)NC(=O)[C@H](CCC(N)=O)NC(=O)[C@H](Cc2c[nH]c3ccccc23)NC(=O)[C@H]([C@@H](C)CC)NC1=O) [Compound 15]	=	47
